Parameter Measured: melting point

Below, 2 compounds whose answers are already recorded.
> print(dat)
                                   compound         result
1  Cc1cc(S(=O)(=O)Nc2ccc(N)cc2)c2c(C)ccc(C(C)C)cc1-2 [4l]    88 to 90 °C
2  Cc1cc(S(=O)(=O)Nc2cccc(Br)c2)c2c(C)ccc(C(C)C)cc1-2 [4a]  172 to 174 °C

-- ask Looking for the measured melting point of COC(=O)CCNS(=O)(=O)C1=C2C(C)=C=C=C(C(C)C)C=C2C(C)=C1 [5h] , can you help?
-- reply 94 to 96 °C

-- ask # get_value(readout='melting point', item= COC(=O)C(Cc1c[nH]c2ccccc12)NS(=O)(=O)C1=C2C(C)=C=C=C(C(C)C)C=C2C(C)=C1 (stereo not shown) [5d] )
-- reply 178 to 180 °C

-- ask Need melting point of Cc1cc(S(=O)(=O)Nc2cccc3ccccc23)c2c(C)ccc(C(C)C)cc1-2 [4d] , thanks.
-- reply 140 to 142 °C
